Assay: qHTS for Inhibitors of human tyrosyl-DNA phosphodiesterase 1 (TDP1): qHTS in cells in absence of CPT; further: nearly all actives have a fitted effect of over 55% in size
Conditions: DT40 Tdp1-/- hTDP1 cells, no CPT, ATP luminescence, 48 h
Among all 420,000 compounds or so, about 64,000 (15%) were called active. Another 27% or so got no clear call; they are omitted. The call rests on the fitted dose curve; in most records, active means well fitted inhibition curve with a large enough effect; inconclusive means small, poorly fitted or top-dose-only effect; inactive means flat fitted curve, though single readings scatter. A selection follows.
Outcome codes: True (active), False (inactive)

| compound | assigned category |
| --- | --- |
| Cc1ccc(N2C(=O)CC(N3CCSCC3)C2=O)c(C)c1 (stereo unspecified) | False |
| CC(C)N(C(=O)Cn1cc(S(=O)(=O)CC(=O)N2CCOCC2)c2ccccc21)C(C)C | False |
| O=C(CSc1cn(CC(=O)N2CCOCC2)c2ccccc12)Nc1ccccc1 | False |
| C=C(C)CNC(=S)/N=c1\scc(C)n1CC | True |
| CCN(CC)S(=O)(=O)c1ccc(C(=O)N2CCN(C3=NS(=O)(=O)c4ccccc43)CC2)cc1 | False |
| NC(=O)c1ccc(Nc2ccc3nonc3c2[N+](=O)[O-])cc1 | False |
| O=C(c1ccc(Cl)c(S(=O)(=O)N2CCCCCC2)c1)N1CCN(c2ccc(O)cc2)CC1 | False |
| Cc1noc(NS(=O)(=O)c2ccc(N/C=C/C(=O)c3ccccc3)cc2)c1C | False |
| COc1ccc(N2CCN(C(=O)CNS(=O)(=O)c3ccc(C)c(C)c3)CC2)cc1 | False |
| CCC(C)N(C(=O)COC(=O)c1nc(Cl)ccc1Cl)C1CCS(=O)(=O)C1 (stereo unspecified) | False |
| COc1ccccc1N1CCN(C(=O)c2ccc(Cl)c(S(=O)(=O)N3CCCC3)c2)CC1 | True |
| C/C(O)=C\c1nc(=O)c2c(C)cc(C)nc2n1-c1ccccc1 | False |
| O=C(CNS(=O)(=O)c1ccc(Br)s1)N1CCN(C(=O)c2ccco2)CC1 | False |
| OCC(O)CN(c1ccccc1)c1ccccc1 (stereo unspecified) | False |
| Cc1csc(=NC(=O)c2ccccc2)n1CCO | False |
| COc1ccccc1N1CCN(C(=O)c2ccc(S(=O)(=O)N3CCCCC3)cc2)CC1 | True |
| COc1ccccc1NC(=O)C(CC(=O)O)Cc1cc(C)cc(C)c1 (stereo unspecified) | False |
| CN1OC[C@@H]2CN(C(=O)C(C)(C)C)[C@H](c3ccc(-n4ccnc4)cc3)C[C@@H]21 | False |
| COc1ccc(N2CCN(C(=O)COC(=O)c3cccc(S(=O)(=O)Nc4ccccc4OC)c3)CC2)cc1 | True |
| COc1ccc(C(=O)N2CCC3(CCCN(C(c4ccccc4)c4ccccc4)C3)CC2)cc1 | False |
| CN(c1ccccc1)S(=O)(=O)c1ccc(C(=O)N2CCN(c3ccccc3Cl)CC2)cc1 | True |
